Ki overview
Biological target: adrenergic alpha-2A receptor (Alpha2A) (Homo sapiens)
Sequence (P08913 1-465): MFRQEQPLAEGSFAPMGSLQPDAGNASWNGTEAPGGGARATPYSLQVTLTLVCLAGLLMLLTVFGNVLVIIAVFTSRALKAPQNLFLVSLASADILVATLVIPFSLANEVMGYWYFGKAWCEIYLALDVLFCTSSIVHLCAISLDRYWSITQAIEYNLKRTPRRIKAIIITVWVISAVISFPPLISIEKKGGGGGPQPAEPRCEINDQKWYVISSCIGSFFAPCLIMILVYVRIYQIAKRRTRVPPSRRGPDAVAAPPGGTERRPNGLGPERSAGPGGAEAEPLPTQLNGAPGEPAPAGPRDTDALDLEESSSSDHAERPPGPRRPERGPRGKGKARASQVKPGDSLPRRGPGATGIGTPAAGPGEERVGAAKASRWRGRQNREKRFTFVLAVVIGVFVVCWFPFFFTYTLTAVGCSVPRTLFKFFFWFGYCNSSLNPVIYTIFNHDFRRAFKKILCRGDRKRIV
Assay: Equilibrium receptor binding, recombinant human receptor
Answer format: number, then unit.

See these solved cases before continuing.
- smiles-code: "CN(C)CCC=C1c2ccccc2C=Cc2ccccc21"
  subject-of-test: "adrenergic alpha-2A receptor (Alpha2A) (Homo sapiens)"
  Ki: "360 nM"
- smiles-code: "CN(C)CCC=C1c2ccccc2CCc2ccccc21"
  subject-of-test: "adrenergic alpha-2A receptor (Alpha2A) (Homo sapiens)"
  Ki: "250 nM"

Moving on to another molecule below.
Query block: Could you tell me which Ki is on file for CNCCC=C1c2ccccc2C=Cc2ccccc21 ?
Result block: 1800 nM
